# assay.details: Acute toxicity in ip dosed mouse
# Assay type: organism-based
# settings: in vivo
readout.kind: LD50 (mg/kg)
Note: unit mg/kg is implicit; provide only the numeric part.

Problem: Request the reported LD50 associated with CC[C@]1(O)C[C@@H]2CN(CCc3c([nH]c4ccccc34)[C@@](C(=O)OC)(c3cc4c(cc3OC)N(C)[C@H]3[C@@](O)(C(N)=O)[C@H](O)[C@]5(CC)C=CCN6CC[C@]43[C@@H]65)C2)C1.O=S(=O)(O)O [VINDESINE SULFATE]
Solution: 6.3

Problem: What value of LD50 has been recorded for this entry: CC[C@]1(O)C[C@@H]2CN(CCc3c([nH]c4ccccc34)[C@@](C(=O)OC)(c3cc4c(cc3OC)N(C)[C@H]3[C@@](O)(C(=O)OC)[C@H](OC(C)=O)[C@]5(CC)C=CCN6CC[C@]43[C@@H]65)C2)C1.O=S(=O)(O)O [VINBLASTINE SULFATE]
Solution: 10

Problem: Recorded LD50 for CC[C@]1(O)C[C@H]2CN(CCc3c([nH]c4ccccc34)[C@@](C(=O)OC)(c3cc4c(cc3OC)N(C=O)[C@H]3[C@@](O)(C(=O)OC)[C@H](OC(C)=O)[C@]5(CC)C=CCN6CC[C@]43[C@@H]65)C2)C1.O=S(=O)(O)O [VINCRISTINE SULFATE] , please?
Solution: 2.1

Field: next compound
Problem: For CC[C@]1(O)C[C@H]2CN(CCc3c([nH]c4ccccc34)[C@@](C(=O)OC)(c3cc4c(cc3OC)N(C)[C@H]3[C@@](O)(C(=O)OC)[C@H](O)[C@]5(CC)C=CCN6CC[C@]43[C@@H]65)C2)C1.O=S(=O)(O)O , what is its reported LD50?
Solution: 5.8
